- System: NCI-H226 lung
- measurement.notes: NCI-60 one-dose screen, 48 h
- test.conditions: 10 µM unless noted
Compounds without any hit were thinned out: in the full panel of roughly 83,000, 20% have a hit. The source made the active and inactive calls. The calls were made as follows: active = growth percent below 10; inactive = the rest.
Permitted responses: active, inactive

// outcome(item) with item = N#Cc1cccc(NC(=O)c2oc3ccccc3c2-c2cnn(-c3ccccc3)c2)c1 inactive

// query: Brc1ccc(-n2cc(-c3nn[nH]n3)c(-c3cccs3)n2)cc1 inactive

// query: COc1cc(-c2csc(NC(=O)c3cc(-n4cnc(C)c4)cc(C(F)(F)F)c3)n2)cc(OC)c1OC inactive

// query: O=C1/C(=C/c2cccs2)SC(=S)N1CCCN1CCOCC1 inactive

// query: O=C(/C=C/c1cccs1)c1ccc(Cl)nc1 inactive

// query: COc1cc2c(c(OC)c1OC)C(=O)CC(c1cccc(NC(=O)c3ccc(Br)cc3)c1)O2 (centres undefined) inactive

// query: CCC(C)N(c1ccc(Cl)cc1)c1nc(-c2ccc(Br)cc2)cs1 (centres undefined) inactive

// query: O=S(=O)(NCCCNc1nccc(-c2c(-c3ccc(F)c(O)c3)nc3occn23)n1)c1ccccc1 inactive

====

- Tested on: HCT-15 colon
- measurement.notes: NCI-60 one-dose screen, 48 h
- test.conditions: 10 µM unless noted
The panel holds about 83,000 compounds, 20% with a hit somewhere; the sample as a whole holds those more often. Active and inactive are the calls of the source. How the source made its calls: active means growth percent below 10; inactive means the rest.
Permitted responses: active, inactive

Some solved entries appear below for comparison.
C#CCOc1ccc2ncnc(Nc3cccc(NC(=O)C=C)c3)c2c1; inactive
CC(=O)OC[C@]12CCC(C)(C)C[C@H]1[C@@]1(O)[C@H](O)C[C@@H]3[C@@]4(C)CCCNC(C)(C)[C@@H]4CC[C@@]3(C)[C@]1(C)CC2; inactive
CCOC(=O)c1cc(C(=O)c2cc(OC)c(OC)c(OC)c2)n2ccc(-c3ccncc3)cc12; inactive
NC(=O)c1c(NC(=O)c2ccccc2)sc2c1CCC(=O)C2; inactive
O=C1/C(=C/c2ccc(F)cc2)COc2ccc(O)c(O)c21; active

// outcome(item) with item = COc1ccc(OC)c(-c2c(C#N)c(-c3cccs3)nc3c2c(-c2ccccc2)nn3-c2ccccc2)c1 inactive

// query: O=c1oc2c(cnc3ccccc32)cc1-c1ccsc1 inactive

// query: COc1ccc2c3c([nH]c2c1)C(=O)c1nc(C)ccc1C3=O inactive

// query: O=C1NC(=O)c2c1c1c3ccccc3ccc1c1[nH]c3ccc(Br)cc3c21 inactive

// query: O=C(/C=C(/C=C/c1cccc2[nH]ccc12)OB(F)F)/C=C/c1cccc2[nH]ccc12 active

====

- Test system: HS 578T breast
- measurement.notes: NCI-60 one-dose screen, 48 h (100 = growth as untreated, 0 = no growth, -100 = all killed)
- test.conditions: 10 µM unless noted
The panel holds about 83,000 compounds, 20% with a hit somewhere; the sample as a whole holds those more often.
Mark fulfilled only when growth stays strictly below 80%. Values equal to the cut-off are not fulfilled.

Some solved entries appear below for comparison.
CCc1nc2c(=O)[nH]cnc2o1; not fulfilled
O=C(c1ccc(-c2nc(CSc3nc4ccccc4s3)no2)cc1)N1CCSCC1; not fulfilled
CC1=C(C(=O)OC(C)C)C(c2ccc3c(c2)OCO3)NC(=S)N1 (stereo not given); not fulfilled
CC/C(=C(/c1ccc(Cl)cc1)c1ccc(OCCN2CCCC2)cc1)c1ccc(OC)cc1; not fulfilled
C=C1C(=O)O[C@H]2[C@H]1CC/C(COC(=O)CCSCCC(=O)OC/C1=C/CC[C@@]3(C)O[C@H]3[C@H]3OC(=O)C(=C)[C@@H]3CC1)=C\CC[C@@]1(C)O[C@@H]21; fulfilled
Cc1cccc2c1NC(=O)C2(c1ccc(O)cc1)c1ccc(O)cc1; fulfilled
N#Cc1c(-c2ccc(Cl)cc2)nc(SCC(=O)NC2=NN=C(c3ccccc3)CS2)[nH]c1=O; not fulfilled
COC(C(=O)[C@@H](O)[C@@H](C)O)[C@@H]1Cc2cc3cc(O[C@H]4C[C@@H](O[C@H]5C[C@@H](O)[C@H](O)C(C)O5)[C@H](O)C(C)O4)c(C)c(O)c3c(O)c2C(=O)[C@H]1O[C@H]1C[C@@H](O[C@H]2C[C@@H](O[C@H]3C[C@@H](O)[C@H](OC)C(C)O3)[C@@H](O)C(C)O2)[C@H](O)C(C)O1 (stereo not given in full); fulfilled
O=C(CCC(=O)N/N=C/c1ccccc1O)N/N=C/c1ccccc1O; fulfilled
C#CCOc1ccc2ncnc(Nc3cccc(NC(=O)C=C)c3)c2c1; fulfilled

In plain terms, does O=C(Nc1nc2ccc(F)cc2s1)c1cccnc1Nc1ccc(Cl)cc1 come in under 80% for growth? fulfilled

// query: COc1ccc(-c2csc(N(C(=O)N3CCN(c4cc5c(cc4F)c(=O)c(C(=O)O)cn5C4CC4)CC3)c3ccccc3)n2)cc1 fulfilled

// query: O=C(CSc1nnc2n1S(=O)(=O)c1ccccc1N2c1ccccc1)Nc1nc2ccc(F)cc2s1 not fulfilled

// query: CC(C)N1CCN(Cc2ccc3c(NNC(=O)c4ccccc4)nc4cc(F)ccc4n23)CC1 fulfilled

// query: O=C1/C(=C/c2ccc(F)cc2)COc2ccc(O)cc21 not fulfilled

// query: O=C(/C=C/c1cccs1)c1ccc(Cl)nc1 not fulfilled

// query: CCOC(=O)c1c2c(n3ccc(C)cc13)C(=O)c1ccccc1C2=O not fulfilled

// query: CCS/C(Nc1ccccc1)=C(\C#N)C(=O)N/N=C/c1ccc(Cl)cc1Cl fulfilled

// query: COc1ccc(NC(=O)c2sc3nc(C)c(C(=O)/C=C/c4cccc(OC)c4)cc3c2N)cc1 fulfilled

// query: O=C(O)c1[nH]c(=O)[nH]c(=O)c1[N+](=O)[O-] not fulfilled

// query: N#CCSc1nnc2n(Cc3ccccc3)c(=O)c3c4c(sc3n12)CCCC4 not fulfilled

// query: CCN(CC)c1nc(SCc2ccccc2Cl)ncc1C not fulfilled

// query: Cc1ccc(-n2c(=S)[nH]c3sc4c(c3c2=O)CCC(=O)C4)cc1 fulfilled

// query: Cc1ccc(NC(=S)NNC(=S)NNc2ccccc2)cc1C not fulfilled

// query: COc1ccc(C/C(C)=C(/c2ccc(OCCN3CCCCC3)cc2)c2ccc(OC(=O)NCc3ccccc3)cc2)cc1 fulfilled
